Test System: PARP-1 (poly[ADP-ribose] polymerase 1) enzyme (Homo sapiens (Human), UniProt P09874)
Sequence (P09874 whole entry): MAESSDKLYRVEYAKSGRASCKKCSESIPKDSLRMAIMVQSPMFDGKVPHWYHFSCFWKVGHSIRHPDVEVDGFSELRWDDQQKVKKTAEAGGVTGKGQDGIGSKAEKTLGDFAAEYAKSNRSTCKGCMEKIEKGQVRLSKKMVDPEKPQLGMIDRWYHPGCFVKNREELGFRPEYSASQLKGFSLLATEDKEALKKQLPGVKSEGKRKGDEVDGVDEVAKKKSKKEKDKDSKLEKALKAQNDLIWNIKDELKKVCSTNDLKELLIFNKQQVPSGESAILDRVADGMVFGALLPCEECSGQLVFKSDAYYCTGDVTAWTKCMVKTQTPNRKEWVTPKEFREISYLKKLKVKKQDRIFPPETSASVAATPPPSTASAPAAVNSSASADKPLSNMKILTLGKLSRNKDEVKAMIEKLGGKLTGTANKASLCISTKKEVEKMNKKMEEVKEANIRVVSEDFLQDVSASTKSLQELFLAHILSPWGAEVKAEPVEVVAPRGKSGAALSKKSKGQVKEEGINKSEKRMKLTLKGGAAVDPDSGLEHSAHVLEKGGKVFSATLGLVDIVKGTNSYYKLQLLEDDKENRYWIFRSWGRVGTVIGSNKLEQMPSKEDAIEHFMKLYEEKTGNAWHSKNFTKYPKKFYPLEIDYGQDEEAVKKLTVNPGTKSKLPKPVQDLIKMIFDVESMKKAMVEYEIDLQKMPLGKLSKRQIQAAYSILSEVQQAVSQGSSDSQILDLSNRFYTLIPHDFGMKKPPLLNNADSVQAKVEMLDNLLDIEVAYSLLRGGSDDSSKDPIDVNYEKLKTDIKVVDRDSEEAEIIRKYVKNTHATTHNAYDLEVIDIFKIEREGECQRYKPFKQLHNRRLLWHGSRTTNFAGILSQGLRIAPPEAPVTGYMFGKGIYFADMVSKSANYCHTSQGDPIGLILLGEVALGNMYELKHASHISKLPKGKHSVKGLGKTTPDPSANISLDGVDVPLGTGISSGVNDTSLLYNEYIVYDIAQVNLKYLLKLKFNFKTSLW
Assay Remarks: PARP-1 (poly[ADP-ribose] polymerase 1) enzyme inhibitory ability, Trevigen assay kit
Type: biochemical
Reported Conditions: PARP-1 enzyme activity; hydrochloride
Where a name gives a salt, the structure may show the parent alone.
Parameter Measured: pIC50
Here pIC50 is given on a logarithmic scale as minus log10 of the concentration in mol/L.

Q. Quote pIC50 reported for N#Cc1ccc(N2CCN(CCCc3cc4cccc(F)c4c(=O)[nH]3)CC2)cc1 [Example 6, hydrochloride] please.
A. 9.39

----------
Test System: PARP-1 (poly[ADP-ribose] polymerase 1) enzyme (Homo sapiens (Human), UniProt P09874)
Assay Remarks: PARP-1 (poly[ADP-ribose] polymerase 1) enzyme inhibitory ability, Trevigen assay kit
Format: biochemical
Reported Conditions: 1 nM compound; read-out: PAR P-1 Inhibitory ability at 1 nM
Parameter Measured: inhibition at 0.001 µM

Sample answers from the record:
| Molecule | Test System | Parameter Measured | Reported Result |
| --- | --- | --- | --- |
| O=C(CCc1cc2cccc(F)c2c(=O)[nH]1)N1CCN(C(=O)C2CCCCC2)CC1 | PARP-1 (poly[ADP-ribose] polymerase 1) enzyme (Homo sapiens (Human), UniProt P09874) | inhibition at 0.001 µM | < 50% |
| O=C(CCc1cc2cccc(F)c2c(=O)[nH]1)N1CCN(C(=O)C2CCCO2)CC1 (stereo not shown) | PARP-1 (poly[ADP-ribose] polymerase 1) enzyme (Homo sapiens (Human), UniProt P09874) | inhibition at 0.001 µM | < 50% |
| N#Cc1cc(F)cc(C2=CCN(C(=O)CCc3cc4cccc(F)c4c(=O)[nH]3)CC2)c1 | PARP-1 (poly[ADP-ribose] polymerase 1) enzyme (Homo sapiens (Human), UniProt P09874) | inhibition at 0.001 µM | < 50% |

Now for a further molecule.
Q. Write inhibition at 0.001 µM of "N#Cc1ccc(N2CC3CCC(C2)N3CCCc2cc3ccc(F)cc3c(=O)[nH]2)nc1" ; system used: PARP-1 (poly[ADP-ribose] polymerase 1) enzyme (Homo sapiens (Human), UniProt P09874)
A. 50 to 80%

----------
Test System: PARP-1 (poly[ADP-ribose] polymerase 1) enzyme (Homo sapiens (Human))
Assay Remarks: PARP-1 (poly[ADP-ribose] polymerase 1) enzyme inhibitory ability, Trevigen assay kit
Type: biochemical
Reported Conditions: PARP-1 enzyme activity
Parameter Measured: IC50 (nM)
Give the number; nM is assumed, so skip it.

Consider the reported IC50 for these molecules:
| Chemical Smiles | Reported Result |
| --- | --- |
| COC(=O)c1ccc(NC2CCN(C(=O)CCc3cc4c(C)ccc(F)c4c(=O)[nH]3)CC2)cc1 | 8.59 |
| N#Cc1ccc(N2CCN(C(=O)CCc3cc4ncccc4c(=O)[nH]3)CC2)cc1 | 4.92 |
| Cc1cc(F)cc2c(=O)[nH]c(CCCN3CC=C(c4ccc(C#N)cc4)CC3)cc12 | 1.76 |
| Cc1ccc(F)c2c(=O)[nH]c(CCCN3C4CCC3CN(c3ccc(C#N)nc3)C4)cc12 | 1.24 |
| O=c1[nH]c(CCCN2CCN(c3ccc(F)cc3)CC2)cc2ccc(F)cc12 | 4.01 |
| Cc1ccc(F)c2c(=O)[nH]c(CCCN3CC=C(c4ccc(C#N)cn4)CC3)cc12 | 0.91 |
| N#Cc1ccc(N2CCN(C(=O)CCc3cc4ccc(F)cc4c(=O)[nH]3)CC2)nc1 | 1.05 |

In the following, a different molecule is considered.
Q. Read off the recorded IC50 for "N#Cc1ccc(N2CCN(CCCc3cc4ccc(F)cc4c(=O)[nH]3)CC2)cc1"
A. 0.72

Value source: patent US12459899B2
